test: blockers of an Epstein-Barr virus protein-peptide interaction – biochemical, fluorescence polarization, dose response (AID 1419); settings: cell-free protein-peptide binding, 2 h
Calls of active or inactive are those of the source. How the calls were made is not given here.
Hi! Could you answer with just one of these? label 1 = active, label 0 = inactive

Query: Field: outcome | Entry: O=[N+]([O-])c1ccc(-c2cn3nc(-c4ccccc4)c(-c4ccccc4)nc3n2)cc1
Response: label 1

Query: Field: outcome | Entry: COc1ccc(/C=C2\SC(c3ccc(C)cc3)=NC2=O)cc1OC
Response: label 0

Query: Field: outcome | Entry: O=c1c(O)cccc2cc(O)c(O)c(O)c12
Response: label 1

Query: Field: outcome | Entry: CCCCCCn1c(=O)[nH]c2nc3cc(N)ccc3nc2c1=O
Response: label 1

Query: Field: outcome | Entry: c1ccc2c(c1)CCCN2Cc1nnnn1CC1CCCO1 (stereo not given)
Response: label 1
